# assayDetails: in vitro
# conditionsUsed: rat, gh3-tre-luc cells, AC50 (uM) modified / 1000
Where a name gives a salt, the structure may show the parent alone.
propertyMeasured: CC50 at 24 h

>  <compound>
CCOc1ccc(NC(C)=O)cc1N [3-Amino-4-ethoxyacetanilide]

>  <CC50 at 24 h>
> 90 µM

$$$$
>  <compound>
O=Cc1ccc(Cl)c(Cl)c1 [3,4-Dichlorobenzaldehyde]

>  <CC50 at 24 h>
> 90 µM

$$$$
>  <compound>
COc1ccc(N)c(OC)c1 [2,4-Dimethoxyaniline hydrochloride]

>  <CC50 at 24 h>
> 50 µM

$$$$
>  <compound>
COCCO [2-Methoxyethanol]

>  <CC50 at 24 h>
> 90 µM

$$$$
>  <compound>
NCC(O)c1ccc(O)cc1 (stereo not drawn) [Octopamine hydrochloride]

>  <CC50 at 24 h>
> 90 µM

$$$$

Measured CC50 at 24 h of C=CCOC(=O)CCCCCCCC [Allyl nonanoate] : > 90 µM

* * *

# assayDetails: in vitro
# conditionsUsed: rat, gh3-tre-luc cells, AC50 (uM) modified / 1000, Tox21_110001=Tox21_202343; viability, 1 nM T3 present, 24 h
propertyMeasured: CC50 at 24 h

Measured CC50 at 24 h of `CCOP(=S)(OCC)SCCSCC` : > 90 µM

* * *

# assayDetails: in vitro
# conditionsUsed: rat, gh3-tre-luc cells, AC50 (uM) modified / 1000, Tox21_110001=Tox21_112829; viability, 1 nM T3 present, 24 h
Counter-ions that a name gives are not always drawn.
propertyMeasured: CC50 at 24 h

Measured CC50 at 24 h of C[C@H](CN1CCOCC1)C(C(=O)N1CCCC1)(c1ccccc1)c1ccccc1 [Dextromoramide tartrate] : > 100 µM

* * *

# assayDetails: in vitro
# conditionsUsed: rat, gh3-tre-luc cells, AC50 (uM) modified / 1000, Tox21_110001=Tox21_111785; viability, 1 nM T3 present, 24 h
propertyMeasured: CC50 at 24 h

Measured CC50 at 24 h of `COc1ccc(C(=O)c2c(C)n(CCN3CCOCC3)c3ccccc23)cc1` : > 50 µM

* * *

# assayDetails: in vitro
# conditionsUsed: rat, gh3-tre-luc cells, AC50 (uM) modified / 1000, Tox21_110001=Tox21_300793; viability, 1 nM T3 present, 24 h
propertyMeasured: CC50 at 24 h

Measured CC50 at 24 h of `CON(C)C(=O)Nc1ccc(Br)c(Cl)c1` : > 90 µM

* * *

A collection of compounds and their measured CC50 at 24 h
# assayDetails: in vitro
# conditionsUsed: rat, gh3-tre-luc cells, AC50 (uM) modified / 1000
Counter-ions that a name gives are not always drawn. Non-standard residues stand in square brackets, D forms with d. Residues, ends and D or L forms follow the SMILES beside them. *: point of attachment. Sta = CC(C)C[C@H](N)[C@@H](O)CC(=O)O; Isovaleryl = CC(C)CC(=O)*

>  <compound>
CC(C)(C)c1ccc(CN2CCN(C(c3ccccc3)c3ccc(Cl)cc3)CC2)cc1 (centres unmarked) [Buclizine dihydrochloride]

>  <CC50 at 24 h>
32.6 µM

$$$$

Measured CC50 at 24 h of Cc1cc(C)c(NC(=O)C[C@H](CC(=O)O)c2cccc3ccccc23)c(C(=O)N2CCC3(CCCC3)CC2)c1 [Itriglumide sodium] : 26.9 µM

Measured CC50 at 24 h of N#C[C@@H]1CC(F)(F)CN1C(=O)CNC1CC2CCC(C1)N2c1ncccn1 (some centres unmarked) [SSR162369] : > 90 µM

Measured CC50 at 24 h of CO/N=C(\C(=O)N[C@@H]1C(=O)N2C(C(=O)O)=C(CSc3nc(=O)c(=O)[nH]n3C)CS[C@H]12)c1csc(N)n1 [Ceftriaxone disodium trihydrate] : > 50 µM

Measured CC50 at 24 h of COc1cc2[nH]c(C)c(CCN3CCN(c4ccccc4)CC3)c2cc1OC [Oxypertine hydrochloride] : 23.2 µM

Measured CC50 at 24 h of CC(C)CC(=O)N[C@H](C(=O)N[C@H](C(=O)N[C@@H](CC(C)C)[C@@H](O)CC(=O)N[C@@H](C)C(=O)N[C@@H](CC(C)C)[C@@H](O)CC(=O)O)C(C)C)C(C)C [Pepstatin] (Isovaleryl-VV[Sta]A[Sta]-OH) : > 50 µM

Measured CC50 at 24 h of CSCC[C@H](N)C(=O)O [Methionine] : > 50 µM

Measured CC50 at 24 h of Cc1ccc(S(=O)(=O)NC(=O)NN2CC3CCC[C@@H]3C2)cc1 (stereo in doubt) [Gliclazide] : > 20 µM

Measured CC50 at 24 h of COc1cc(/C=C/C(=O)N2CCN(CC(=O)N3CCCC3)CC2)cc(OC)c1OC [Cinepazide maleate] : > 50 µM

Measured CC50 at 24 h of C=C1[C@H]2CC[C@@H]3[C@H]2C(C)(C)CCC[C@]13C [Longifolene] : > 90 µM

Measured CC50 at 24 h of CC(=O)Nc1ccc(O)cc1 [Acetaminophen] : > 50 µM

Measured CC50 at 24 h of C[N+]1(C)[C@@H]2CC(OC(=O)[C@H](CO)c3ccccc3)C[C@H]1[C@@H]1O[C@@H]12 (some centres unmarked) [Scopolamine methylbromide] : > 50 µM

Measured CC50 at 24 h of CCCCCc1ccc(C)cc1O [Amylmetacresol] : > 50 µM

Measured CC50 at 24 h of C=C(C)C1CC=C(C)C(=O)C1 (racemic) [dl-Carvone] : > 90 µM

Measured CC50 at 24 h of Nc1ccc(N)cc1 [1,4-Benzenediamine] : 68.8 µM

Measured CC50 at 24 h of O=C(O)CF [Sodium fluoroacetate] : > 90 µM

Measured CC50 at 24 h of Cc1cc(N)no1 [5-Methyl-3-isoxazolamine] : > 100 µM
